Molecular target: TNFα / TNFα receptor (TNFα R1/Fc) (Homo sapiens)
Construct: purchased R&D Systems
Sequence (P01375 77-233 limits assumed, species assumed): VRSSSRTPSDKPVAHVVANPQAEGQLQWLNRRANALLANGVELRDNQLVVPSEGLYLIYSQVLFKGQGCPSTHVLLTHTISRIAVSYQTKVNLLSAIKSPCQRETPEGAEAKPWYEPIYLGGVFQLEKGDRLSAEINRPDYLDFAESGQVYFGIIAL
Test: Inhibition of binding of TNFα to the TNFα receptor (plate ELISA competition)
Conditions: Table 2; read-out: Activity (IC50, inhibition of TNFα binding to TNFα R1/Fc)
Numbered stars: 1 amine (or outer) side, 2 acyl side, 3 side chain; on linkers, the order of the positions; unused ones are H or OH. Bridge positions count the residues as written; N and C are the ends. Square brackets hold non-standard residues; d marks the D form. Peptide text beside a SMILES is read from it. Phe(4-CF3) = N[C@@H](Cc1ccc(C(F)(F)F)cc1)C(=O)O; Bip = N[C@@H](Cc1ccc(-c2ccccc2)cc1)C(=O)O; Phe(4-NH2) = Nc1ccc(C[C@H](N)C(=O)O)cc1; d2Thi = N[C@H](Cc1cccs1)C(=O)O; Suc = O=C(CCC(=O)[*:2])[*:1]; GABA = NCCCC(=O)O
Listed here: items and their measured IC50.

Look over these answered cases.
compound: O=C(O)CNC(=O)[C@@H]1Cc2ccc(cc2)OCC(=O)N[C@@H](Cc2cccs2)C(=O)N[C@H](Cc2ccc(-c3ccccc3)cc2)C(=O)N[C@@H](CCc2ccccc2)C(=O)N1
reportedMeasurement: < 10 µM
//
compound: NCCCC(=O)N[C@@H]1CC(=O)Nc2ccc(cc2)C[C@@H](C(=O)O)NC(=O)[C@@H](Cc2ccccc2)NC(=O)[C@H](Cc2ccc(-c3ccccc3)cc2)NC(=O)[C@@H](Cc2cccs2)NC1=O [Compound 380] (H-[GABA][dD][d2Thi][Bip][dF][Phe(4-NH2)]-OH; lactam 2-6)
reportedMeasurement: < 10 µM
//
compound: Cc1ccc(C[C@H]2NC(=O)[C@H](O)[C@@H](O)C(=O)Nc3ccc(cc3)C[C@@H](C(=O)O)NC(=O)[C@@H](Cc3ccccc3)NC(=O)[C@H](Cc3ccc(-c4ccccc4)cc3)NC2=O)cc1
reportedMeasurement: > 100 µM
//
compound: COC(=O)[C@@H]1Cc2ccc(cc2)NC(=O)CCC(=O)N[C@H](CC(=O)O)C(=O)N[C@@H](Cc2ccc(C(F)(F)F)cc2)C(=O)N[C@H](Cc2ccccc2)C(=O)N1 [Compound 206] ([dD][Phe(4-CF3)][dF][Phe(4-NH2)]-OMe; linker N-4 via Suc)
reportedMeasurement: > 100 µM

Switching to the query record.
[in] I have this compound here, O=C(O)CNC(=O)[C@@H]1Cc2ccc(cc2)OCC(=O)N[C@H](Cc2cccs2)C(=O)N[C@@H](Cc2ccc(-c3ccccc3)cc2)C(=O)N[C@H](CCc2ccccc2)C(=O)N1 , and I need its recorded IC50.
[out] < 10 µM

---

Listed here: items and their measured IC50.
Biological target: TNFα / TNFα receptor (TNFα R1/Fc) (Homo sapiens)
Construct: purchased R&D Systems
Test: Inhibition of binding of TNFα to the TNFα receptor (plate ELISA competition)
Conditions: Table 2; read-out: Activity (IC50, inhibition of TNFα binding to TNFα R1/Fc)
Numbered stars: 1 amine (or outer) side, 2 acyl side, 3 side chain; on linkers, the order of the positions; unused ones are H or OH. Bridge positions count the residues as written; N and C are the ends. Square brackets hold non-standard residues; d marks the D form. Peptide text beside a SMILES is read from it. * marks the point of attachment. Phe(4-COOH) = N[C@@H](Cc1ccc(C(=O)O)cc1)C(=O)O; Bip = N[C@@H](Cc1ccc(-c2ccccc2)cc1)C(=O)O; dBip = N[C@H](Cc1ccc(-c2ccccc2)cc1)C(=O)O; Phe(4-NH2) = Nc1ccc(C[C@H](N)C(=O)O)cc1; d(hPhe) = N[C@H](CCc1ccccc1)C(=O)O; hPhe = N[C@@H](CCc1ccccc1)C(=O)O; d2Thi = N[C@H](Cc1cccs1)C(=O)O; NH(CH2)2O(CH2)2NH2 = NCCOCCN*; Suc = O=C(CCC(=O)[*:2])[*:1]; Boc = CC(C)(C)OC(=O)*; GABA = NCCCC(=O)O; βAla = NCCC(=O)O

molecule: O=C1COc2ccc(cc2)C[C@@H](C(=O)O)NC(=O)[C@H](Cc2ccccc2)NC(=O)[C@@H](Cc2ccc(-c3ccccc3)cc2)NC(=O)[C@@H](Cc2cccs2)N1 [Compound 211]
systemName: TNFα / TNFα receptor (TNFα R1/Fc) (Homo sapiens)
IC50: 30 to 100 µM
//
molecule: NCCOCCNC(=O)[C@@H]1Cc2ccc(cc2)NC(=O)CCC(=O)N[C@H](Cc2cccs2)C(=O)N[C@@H](Cc2ccc(-c3ccccc3)cc2)C(=O)N[C@H](Cc2ccccc2)C(=O)N1 [Compound 193] ([d2Thi][Bip][dF][Phe(4-NH2)]-{NH(CH2)2O(CH2)2NH2}; linker N-4 via Suc)
systemName: TNFα / TNFα receptor (TNFα R1/Fc) (Homo sapiens)
IC50: < 10 µM
//
molecule: CC(C)(C)OC(=O)NCCCC(=O)N[C@H]1CC(=O)Nc2ccc(cc2)C[C@@H](C(=O)O)NC(=O)[C@@H](Cc2ccccc2)NC(=O)[C@H](Cc2ccc(-c3ccccc3)cc2)NC(=O)[C@@H](Cc2cccs2)NC1=O [Compound 516] ({Boc-GABA}-D[d2Thi][Bip][dF][Phe(4-NH2)]-OH; lactam 1-5)
systemName: TNFα / TNFα receptor (TNFα R1/Fc) (Homo sapiens)
IC50: 30 to 100 µM
//
molecule: O=C(O)[C@@H]1Cc2ccc(cc2)NC(=O)[C@H](O)[C@@H](O)C(=O)N[C@H](Cc2cccs2)C(=O)N[C@@H](Cc2ccc(Br)cc2)C(=O)N[C@H](Cc2ccccc2)C(=O)N1 [Compound 293]
systemName: TNFα / TNFα receptor (TNFα R1/Fc) (Homo sapiens)
IC50: > 100 µM
//
molecule: C[C@@H](NC(=O)[C@@H]1Cc2ccc(cc2)OCC(=O)N[C@@H](Cc2ccc(-c3ccccc3)cc2)C(=O)N[C@H](Cc2ccc(-c3ccccc3)cc2)C(=O)N[C@@H](CCc2ccccc2)C(=O)N1)C(=O)O [Compound 577]
systemName: TNFα / TNFα receptor (TNFα R1/Fc) (Homo sapiens)
IC50: < 10 µM
//
molecule: CC(=O)NCCCC[C@@H]1NC(=O)COc2ccc(cc2)C[C@@H](C(=O)O)NC(=O)[C@H](Cc2ccccc2)NC(=O)[C@H](Cc2ccc(-c3ccccc3)cc2)NC1=O [Compound 490]
systemName: TNFα / TNFα receptor (TNFα R1/Fc) (Homo sapiens)
IC50: > 100 µM
//
molecule: O=C1CCNC(=O)c2ccc(cc2)C[C@@H](C(=O)O)NC(=O)[C@H](Cc2ccccc2)NC(=O)[C@H](Cc2ccc(-c3ccccc3)cc2)NC(=O)[C@@H](CCc2ccccc2)N1 [Compound 464] ([βAla][d(hPhe)][Bip]F[Phe(4-COOH)]-OH; lactam N-5)
systemName: TNFα / TNFα receptor (TNFα R1/Fc) (Homo sapiens)
IC50: < 10 µM
//
molecule: O=C1COc2ccc(cc2)C[C@@H](C(=O)N[C@H](CCc2ccccc2)C(=O)O)NC(=O)[C@H](CCc2ccccc2)NC(=O)[C@@H](Cc2ccc(-c3ccccc3)cc2)NC(=O)[C@H](Cc2ccc(-c3ccncc3)cc2)N1 [Compound 624]
systemName: TNFα / TNFα receptor (TNFα R1/Fc) (Homo sapiens)
IC50: < 10 µM
//
molecule: O=C1COc2ccc(cc2)C[C@@H](C(=O)O)NC(=O)[C@H](CCc2ccccc2)NC(=O)[C@@H](Cc2ccc(-c3ccccc3)cc2)NC(=O)[C@H](Cc2ccc(-c3ccc(Cl)cc3)cc2)N1 [Compound 702]
systemName: TNFα / TNFα receptor (TNFα R1/Fc) (Homo sapiens)
IC50: < 10 µM
//
molecule: O=C(O)CNC(=O)[C@@H]1Cc2ccc(cc2)NC(=O)CCC(=O)N[C@H](Cc2cccs2)C(=O)N[C@@H](Cc2ccc(-c3ccccc3)cc2)C(=O)N[C@H](CCc2ccccc2)C(=O)N1 [Compound 453] ([d2Thi][Bip][d(hPhe)][Phe(4-NH2)]G-OH; linker N-4 via Suc)
systemName: TNFα / TNFα receptor (TNFα R1/Fc) (Homo sapiens)
IC50: > 100 µM

[in] Quick one: IC50 for O=C1CCNC(=O)c2ccc(cc2)C[C@@H](C(=O)O)NC(=O)[C@H](Cc2ccccc2)NC(=O)[C@@H](Cc2ccc(-c3ccccc3)cc2)NC(=O)[C@H](CCc2ccccc2)N1 [Compound 465] ([βAla][hPhe][dBip]F[Phe(4-COOH)]-OH; lactam N-5) ?
[out] < 10 µM

[in] Which IC50 value is on record for O=C1COc2ccc(cc2)C[C@@H](C(=O)N[C@@H](Cc2ccccc2)c2nnn[nH]2)NC(=O)[C@H](CCc2ccccc2)NC(=O)[C@@H](Cc2ccc(-c3ccccc3)cc2)NC(=O)[C@H](Cc2ccncc2)N1 [Compound 592] ?
[out] < 10 µM
